# target.or.test.system: antiserum As #128 (sheep polyclonal, raised to the alpha subunit of human inhibin, boosted with human recombinant 30-kDa inhibin)
# assay.name: RIA, competition with iodinated inhibin
Where no end group is shown, it is not given here. The star is where a group is joined. Biotin = O=C1N[C@H]2[C@H](CS[C@H]2CCCCC(=O)*)N1
Would you kindly list ED50 for each of these binders?
Answer format: numeric, nM implied, no suffix.

Per the record, Biotin-SGSGWSPSALRLLQRPPE [biotinylated peptide #5 (Set 1) of the human (alpha)C subunit] has ED50 of 3800

binder Biotin-SGSGPNLSLPVPGAPPTP [biotinylated peptide #20 (Set 1) of the human (alpha)C subunit] , ED50 observed: 20

For Biotin-SGSGETVPNLLTQHCACI (cysteine pairing not given here) [biotinylated peptide #33 (Set 1) of the human (alpha)C subunit] the binder record lists ED50 as 2500

The recorded ED50 for entry Biotin-SGSGAALPGTMRPLHVRT [biotinylated peptide #27 (Set 1) of the human (alpha)C subunit] equals 2000

GET /value?item= Biotin-SGSGSFKYETVPNLLTQH [biotinylated peptide #32 (Set 1) of the human (alpha)C subunit] &field=ED50 returns 2500

Sample Biotin-SGSGLPGAQPCCAALPGT (cysteine pairing not given here) [biotinylated peptide #25 (Set 1) of the human (alpha)C subunit] ; ED50 observed: 2000

Note to self: ED50 recorded for Biotin-SGSGGGCGLHIPPNLSLP [biotinylated peptide #18 (Set 1) of the human (alpha)C subunit] was 60

Quick note, ED50 for Biotin-SGSGSTPLMSWPWSPSAL [biotinylated peptide #3 (Set 1) of the human (alpha)C subunit] landed at 38000

The binder Biotin-SGSGPLHVRTTSDGGYSF [biotinylated peptide #29 (Set 1) of the human (alpha)C subunit] showed ED50 equal to 156
